protocol-description: activity coefficient (dimensionless); of the first substance listed, at infinite dilution; xn = mol fraction of the nth substance listed
cond: 344.3 K; Liquid; Chromatography; x1 = 0
measurement-name: activity coefficient

[[record]]
molecule = "CCCCC1CO1 (stereo not drawn) [1,2-epoxyhexane] + CCCCn1cc[n+](C)c1.F[P-](F)(F)(F)(F)F"
data_value = 2.19

[[record]]
molecule = "CCC1CO1 (stereo not drawn) [ethyloxirane] + CCCCn1cc[n+](C)c1.F[P-](F)(F)(F)(F)F"
data_value = 1.13

[[record]]
molecule = "CC1CO1 (stereo not drawn) [methyloxirane] + CCCCn1cc[n+](C)c1.F[B-](F)(F)F"
data_value = 1.27


###

protocol-description: activity coefficient (dimensionless); of the first substance listed, at infinite dilution; xn = mol fraction of the nth substance listed
cond: 363.4 K; Liquid; Chromatography; x1 = 0
Listing of entries alongside the reported activity coefficient.
measurement-name: activity coefficient

[[record]]
compound = "CCCCC1CO1 (stereo not drawn) [1,2-epoxyhexane] + CCCCn1cc[n+](C)c1.F[P-](F)(F)(F)(F)F"
data_value = 2.14

[[record]]
compound = "CC1(C)CO1 [2,2-dimethyloxirane] + CCCCn1cc[n+](C)c1.F[P-](F)(F)(F)(F)F"
data_value = 1.19

[[record]]
compound = "CCC1CO1 (stereo not drawn) [ethyloxirane] + CCCCn1cc[n+](C)c1.F[B-](F)(F)F"
data_value = 2.1

[[record]]
compound = "CCCCC1CO1 (stereo not drawn) [1,2-epoxyhexane] + CCCCn1cc[n+](C)c1.F[B-](F)(F)F"
data_value = 5.2

[[record]]
compound = "CCC1CO1 (stereo not drawn) [ethyloxirane] + CCCCn1cc[n+](C)c1.F[P-](F)(F)(F)(F)F"
data_value = 1.16

[[record]]
compound = "CC1CO1 (stereo not drawn) [methyloxirane] + CCCCn1cc[n+](C)c1.F[P-](F)(F)(F)(F)F"
data_value = 0.872

[[record]]
compound = "CC1(C)CO1 [2,2-dimethyloxirane] + CCCCn1cc[n+](C)c1.F[B-](F)(F)F"
data_value = 2.18

[[record]]
compound = "CC1CO1 (stereo not drawn) [methyloxirane] + CCCCn1cc[n+](C)c1.F[B-](F)(F)F"
data_value = 1.41


###

protocol-description: activity coefficient (dimensionless); of the first substance listed, at infinite dilution; xn = mol fraction of the nth substance listed
cond: 344.3 K; Liquid; Chromatography; x1 = 0
Output Satisfied for activity coefficient not less than 2; output Not satisfied otherwise.

[[record]]
molecule = "CCC1CO1 (stereo not given) [ethyloxirane] + CCCCn1cc[n+](C)c1.F[B-](F)(F)F"
label_value = "Satisfied"

[[record]]
molecule = "CC1CO1 (stereo not given) [methyloxirane] + CCCCn1cc[n+](C)c1.F[P-](F)(F)(F)(F)F"
label_value = "Not satisfied"

[[record]]
molecule = "CC1(C)CO1 [2,2-dimethyloxirane] + CCCCn1cc[n+](C)c1.F[P-](F)(F)(F)(F)F"
label_value = "Not satisfied"

[[record]]
molecule = "CC1(C)CO1 [2,2-dimethyloxirane] + CCCCn1cc[n+](C)c1.F[B-](F)(F)F"
label_value = "Satisfied"

[[record]]
molecule = "CCCCC1CO1 (stereo not given) [1,2-epoxyhexane] + CCCCn1cc[n+](C)c1.F[B-](F)(F)F"
label_value = "Satisfied"

